assay: Dark toxicity in human MCF7 cells assessed as reduction in cell viability incubated for 72 hrs by MTT assay; format: cell-based
Property Label: IC50 at 72 h (µM)

- Smi: "Nc1ccn([C@@H]2O[C@H](CO)[C@@H](O)C2(F)F)c(=O)n1"
  Property Label: "IC50 at 72 h"
  Measured Number: 1.46

###

test: Dark toxicity in human A549 cells assessed as reduction in cell viability incubated for 72 hrs by MTT assay; assay type: cell-based; conditions: A549 cells

- Compound: "Nc1ccn([C@@H]2O[C@H](CO)[C@@H](O)C2(F)F)c(=O)n1 [GEMCITABINE]"
  IC50 at 72 h: "750 nM"

###

assay: Lipophilicity, logP of compound in n-Octanol/water; type: physicochemical

- Smi: "CCN(CC)c1ccc(/C=C/C(=O)OC[C@H]2O[C@@H](n3ccc(N)nc3=O)C(F)(F)[C@@H]2O)c(O)c1"
  logP: 2.1
